assay: Primary phase half life in patient with hepatic insufficiency at 400 mg, po administered as single dose; format: ADME, organism-based; settings: human, in vivo
measurement.label: half-life (h)
Write the value in h as a bare number.

For record Cc1nnc(C(=O)NC(C)(C)c2nc(C(=O)NCc3ccc(F)cc3)c(O)c(=O)n2C)o1 the listed half-life is 1.49

----------
assay: Renal clearance in healthy human at 400 mg, po administered as single dose; format: ADME, organism-based, Kidney; conditions: in vivo, read-out: CL_renal
measurement.label: CL renal

Entry Cc1nnc(C(=O)NC(C)(C)c2nc(C(=O)NCc3ccc(F)cc3)c(O)c(=O)n2C)o1 [RALTEGRAVIR] — recorded CL renal = 31.5 mL/min

----------
assay: Primary phase half life in healthy human at 400 mg, po administered as single dose; format: ADME, organism-based; settings: in vivo
measurement.label: half-life
Note: state the figure and append the unit.

Value of measured half-life for the entry Cc1nnc(C(=O)NC(C)(C)c2nc(C(=O)NCc3ccc(F)cc3)c(O)c(=O)n2C)o1 : 1.1 h

----------
system: Homo sapiens; test: Ratio of Cmax in patient with hepatic insufficiency to Cmax in healthy human at 400 mg, po administered as single dose; assay type: ADME, organism-based; details: in vivo
measurement.label: Cmax (Ratio)
In your answer, state the number alone without any accompanying words.

// Cmax (Ratio) value for Cc1nnc(C(=O)NC(C)(C)c2nc(C(=O)NCc3ccc(F)cc3)c(O)c(=O)n2C)o1 : 0.63

----------
test system: Homo sapiens; experiment: Ratio of plasma concentration in patient with hepatic insufficiency to plasma concentration in healthy human at 400 mg, po administered as single dose; format: ADME, organism-based; settings: in vivo
measurement.label: Activity
Reply with a number, then the unit it belongs to.

Activity measured on Cc1nnc(C(=O)NC(C)(C)c2nc(C(=O)NCc3ccc(F)cc3)c(O)c(=O)n2C)o1 = 1.26 nM

----------
experiment: AUC (0 to infinity) in patient with hepatic insufficiency at 400 mg, po administered as single dose; assay type: ADME, organism-based; set-up: dose 400 mg, route oral, time infinity; details: human, plasma
measurement.label: AUC(0-inf) (µM·h)
Numbers only here, please. The scale is µM·h.

compound Cc1nnc(C(=O)NC(C)(C)c2nc(C(=O)NCc3ccc(F)cc3)c(O)c(=O)n2C)o1 , AUC(0-inf) observed: 17.7

----------
assay: Plasma concentration in patient with severe renal insufficiency at 400 mg, po administered as single dose measured at 12 hrs post dose; format: ADME, organism-based; conditions: human, read-out: Activity
measurement.label: concentration at 12 h

Measured concentration at 12 h of Cc1nnc(C(=O)NC(C)(C)c2nc(C(=O)NCc3ccc(F)cc3)c(O)c(=O)n2C)o1 : 135 nM
